GI50 values by entry
Tested on: MDA-MB-435
Assay: NCI tumour cell line growth inhibition, 48 h
Active and inactive are the calls of the source. Cut-off read from the data, not from the text of the source: active = GI50 up to about 1.1 µM and inactive = higher.
REPORTED_PROPERTY: GI50

[
  {
    "RECORD_SMILES": "O=c1[nH]cc(F)c(=O)[nH]1",
    "REPORTED_PROPERTY": "GI50",
    "READING": "10.6 µM (inactive)"
  },
  {
    "RECORD_SMILES": "C=CCOCn1ccc(=O)[nH]c1=O",
    "REPORTED_PROPERTY": "GI50",
    "READING": "> 100 µM (inactive)"
  },
  {
    "RECORD_SMILES": "COC(=O)CN1CCN(c2cccc3c2CCCC3)CC1",
    "REPORTED_PROPERTY": "GI50",
    "READING": "40.5 µM (inactive)"
  }
]

###

System: A549
Test: NCI tumour cell line growth inhibition, 48 h
Active and inactive are the calls of the source. Cut-off read from the data, not from the text of the source: active = GI50 up to about 1.1 µM and inactive = higher.
GI50 values by entry

[
  {
    "COMPOUND": "CC1=C(C(=O)OCCc2ccc([N+](=O)[O-])cc2)C(c2ccccc2C(F)(F)F)C(C(=O)OC(C)C)=C(C)N1 (centres undefined)",
    "GI50": "2.81 µM (inactive)"
  },
  {
    "COMPOUND": "CCOC(=O)C(C)c1nc2cc(F)c(N3CCOCC3)cc2[nH]c1=O (centres undefined)",
    "GI50": "> 100 µM (inactive)"
  },
  {
    "COMPOUND": "COc1ccc(OC)c2c1C1CCC(=O)N1CN2C(C)=O (centres undefined)",
    "GI50": "> 100 µM (inactive)"
  },
  {
    "COMPOUND": "Nc1ccc2c(c1)C(=O)c1ccc(F)cc1-2",
    "GI50": "> 100 µM (inactive)"
  }
]

###

System: Malme-3M
Experiment: NCI tumour cell line growth inhibition, 48 h
Calls of active or inactive are those of the source. No stated cut-off is given here; in the data, active = GI50 up to about 1.1 µM and inactive = higher.
Outcome codes: active, inactive

[
  {
    "COMPOUND": "CC[C@H](C)[C@H](NC(=O)[C@@]1(O)[C@H](O)[C@]2(CC)C=CCN3CC[C@@]4(c5cc(Br)c(OC)cc5N(C)[C@@H]14)[C@@H]32)C(=O)OC",
    "CLASS_NAME": "inactive"
  },
  {
    "COMPOUND": "NCC(O)CNCC/C=C\\C/C=C\\C/C=C\\C/C=C\\C/C=C\\C/C=C\\CCCCC/C=C\\CCNCC(O)CN (configuration not stated)",
    "CLASS_NAME": "inactive"
  },
  {
    "COMPOUND": "CCC1C(=O)C(O)[C@H]2[C@@H]3C(O)CC4=CC(=O)CC[C@]4(C)[C@H]3CC[C@]12C (some centres not stated)",
    "CLASS_NAME": "inactive"
  },
  {
    "COMPOUND": "Cc1cc(C)nc(NS(=O)(=O)c2ccc(Nc3c4ccccc4nc4c(C(=O)Nc5ccc(S(=O)(=O)N=C(N)N)cc5)ccc(Cl)c34)cc2)n1",
    "CLASS_NAME": "inactive"
  },
  {
    "COMPOUND": "O=C1CCC2(c3ccc(Cl)cc3)Nc3ncccc3N12 (configuration not stated)",
    "CLASS_NAME": "inactive"
  },
  {
    "COMPOUND": "COc1ccc(/C=N/NC(=O)c2ccccc2Nc2ccccc2C(=O)N/N=C/c2ccc(OC)c(OC)c2)cc1OC",
    "CLASS_NAME": "inactive"
  },
  {
    "COMPOUND": "COC(=O)[C@@H]1[C@H]2CC[C@]3(C)[C@@H](OC(C)=O)CC[C@H]3[C@@H]2CC[C@H]1C(C)=O",
    "CLASS_NAME": "inactive"
  },
  {
    "COMPOUND": "CC(C)(c1cn(Cc2ccccc2)c2ccccc12)c1cn(Cc2ccccc2)c2ccccc12",
    "CLASS_NAME": "inactive"
  },
  {
    "COMPOUND": "NC1=C(N2CCOCC2)C(=O)NC2=N/C(=C\\c3ccccc3O)C(=O)N21",
    "CLASS_NAME": "inactive"
  },
  {
    "COMPOUND": "O=c1[nH]c(=O)n(C2OC(CO)C(O)C2O)cc1Oc1ccccc1 (configuration not stated)",
    "CLASS_NAME": "inactive"
  },
  {
    "COMPOUND": "CC(C)(C)N1C(=O)c2ccccc2C1(O)C(F)(F)F (configuration not stated)",
    "CLASS_NAME": "inactive"
  },
  {
    "COMPOUND": "Cc1n[nH]c(=O)n1/N=C/c1ccc([N+](=O)[O-])cc1",
    "CLASS_NAME": "inactive"
  },
  {
    "COMPOUND": "CCN(Cc1cc(Cl)cc(C)c1O)Cc1c(O)ccc2ccccc12",
    "CLASS_NAME": "inactive"
  },
  {
    "COMPOUND": "Cc1c(C)c2c(c(N)c1C#N)C(=O)N(CCN1CCNCC1)C2=O",
    "CLASS_NAME": "inactive"
  },
  {
    "COMPOUND": "CC(C)/C(Cl)=N\\OC(=O)Nc1ccc(F)c([N+](=O)[O-])c1",
    "CLASS_NAME": "inactive"
  },
  {
    "COMPOUND": "COC1(OC)CCc2c(sc3ncnc(Nc4cccc(Br)c4)c23)C1",
    "CLASS_NAME": "inactive"
  },
  {
    "COMPOUND": "Cc1ccc(NC(=O)C2C(=O)C(=O)N(c3ccc(C)cc3)C2=O)cc1 (configuration not stated)",
    "CLASS_NAME": "inactive"
  },
  {
    "COMPOUND": "S=C(Nc1ccccc1)N1N=C2c3ccccc3CC[C@H]2[C@@H]1c1ccccc1",
    "CLASS_NAME": "inactive"
  },
  {
    "COMPOUND": "N#CCC(=O)c1cc(OCc2cc(OCc3ccc(Br)cc3)cc(OCc3ccc(Br)cc3)c2)cc(OCc2cc(OCc3ccc(Br)cc3)cc(OCc3ccc(Br)cc3)c2)c1",
    "CLASS_NAME": "inactive"
  },
  {
    "COMPOUND": "O=C(O)CSC1=NC(=O)C2(NN1)c1ccccc1-c1ccccc12",
    "CLASS_NAME": "inactive"
  },
  {
    "COMPOUND": "COc1ccc(C2CCC(Cl)(OC)CC2C=O)cc1 (configuration not stated)",
    "CLASS_NAME": "inactive"
  },
  {
    "COMPOUND": "Cc1cc(N)ccc1C=O",
    "CLASS_NAME": "inactive"
  },
  {
    "COMPOUND": "COC(=O)CN1CCN(c2cccc3c2CCCC3)CC1",
    "CLASS_NAME": "inactive"
  },
  {
    "COMPOUND": "O=c1cc2ccccc2nn1Cc1cccc(Cl)c1",
    "CLASS_NAME": "inactive"
  },
  {
    "COMPOUND": "CN(C)C(CN)CC1=C(CC(CN)N(C)C)CCC1 (configuration not stated)",
    "CLASS_NAME": "inactive"
  },
  {
    "COMPOUND": "O=C1c2ccccc2C(=O)c2c(NCC3CO3)cccc21 (configuration not stated)",
    "CLASS_NAME": "inactive"
  },
  {
    "COMPOUND": "N#CC1CC2(CCN1C(=O)c1ccccc1)OCCO2 (configuration not stated)",
    "CLASS_NAME": "inactive"
  },
  {
    "COMPOUND": "O=C1[C@H](c2ccccc2)C2c3ccccc3CCN12 (some centres not stated)",
    "CLASS_NAME": "active"
  },
  {
    "COMPOUND": "O=C(Nc1nccs1)c1cc(C2=CC=CC([N+](=O)[O-])C=C2)nc(S)n1 (configuration not stated)",
    "CLASS_NAME": "inactive"
  },
  {
    "COMPOUND": "CNC(=O)OCc1nc(SSc2nc(COC(=O)NC)c(COC(=O)NC)n2C)n(C)c1COC(=O)NC",
    "CLASS_NAME": "inactive"
  },
  {
    "COMPOUND": "Clc1ccc(NCc2nnc(CCCCCCCCc3nnc(CNc4ccc(Cl)cc4)o3)o2)cc1",
    "CLASS_NAME": "inactive"
  },
  {
    "COMPOUND": "O=C(/C=C/c1ccsc1)c1ccsc1",
    "CLASS_NAME": "inactive"
  }
]
